target: Rap guanine nucleotide exchange factor 4 (Homo sapiens) (UniProt Q8WZA2); assay: Confirmatory qHTS for antagonist of cAMP-regulated guanine nucleotide exchange factor 4 (EPAC2) (AID 1645885); details: EPAC2 Rap1B-BODIPY-GDP exchange fluorescence, biochemical; series mostly up to 12.7 µM; also: nearly all actives have a fitted effect of over 25% in size; also: potency is read from the fitted curve at half-maximal effect
Sequence (Q8WZA2 whole entry, looked up): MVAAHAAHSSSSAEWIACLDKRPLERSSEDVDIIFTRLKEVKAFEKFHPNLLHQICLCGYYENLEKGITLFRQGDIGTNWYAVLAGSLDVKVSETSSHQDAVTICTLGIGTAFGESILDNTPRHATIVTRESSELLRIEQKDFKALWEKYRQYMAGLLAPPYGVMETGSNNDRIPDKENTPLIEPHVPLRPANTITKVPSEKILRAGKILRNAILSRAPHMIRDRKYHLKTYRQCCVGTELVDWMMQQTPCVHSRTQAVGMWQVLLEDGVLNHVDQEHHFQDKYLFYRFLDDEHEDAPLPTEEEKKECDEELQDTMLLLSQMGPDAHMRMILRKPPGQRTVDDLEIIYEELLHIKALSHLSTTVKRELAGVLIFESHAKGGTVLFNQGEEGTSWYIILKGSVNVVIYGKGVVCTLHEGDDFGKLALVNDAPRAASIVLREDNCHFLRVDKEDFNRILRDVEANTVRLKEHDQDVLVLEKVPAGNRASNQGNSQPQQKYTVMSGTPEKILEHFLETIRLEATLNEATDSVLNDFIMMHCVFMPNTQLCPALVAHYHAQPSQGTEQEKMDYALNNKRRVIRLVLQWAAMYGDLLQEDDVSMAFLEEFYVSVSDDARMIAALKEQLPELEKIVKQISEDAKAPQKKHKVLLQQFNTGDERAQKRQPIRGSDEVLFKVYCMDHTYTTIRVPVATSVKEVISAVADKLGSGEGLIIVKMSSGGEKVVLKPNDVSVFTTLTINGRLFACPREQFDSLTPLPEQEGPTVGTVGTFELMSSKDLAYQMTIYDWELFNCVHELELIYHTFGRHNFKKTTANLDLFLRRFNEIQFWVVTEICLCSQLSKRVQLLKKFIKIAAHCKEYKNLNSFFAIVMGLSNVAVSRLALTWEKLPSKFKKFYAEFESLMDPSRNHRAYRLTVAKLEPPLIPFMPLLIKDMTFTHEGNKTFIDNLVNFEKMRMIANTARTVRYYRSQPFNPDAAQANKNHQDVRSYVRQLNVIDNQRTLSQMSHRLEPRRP
Records with an inconclusive call do not appear. Calls of active or inactive are those of the source. Calls follow the shape of the dose curve; as a rule, active = well fitted inhibition curve with a large enough effect; inconclusive = small, poorly fitted or top-dose-only effect; inactive = no such curve, though single readings can be large or run the other way.
endpoint-name: Potency

molecule	Potency
COC(=O)c1cc(NC(=O)c2ccccc2)c(=O)oc1C/C=N\OCc1ccc(Cl)cc1Cl	inactive
CCOc1ccc(NC(=O)c2ccc(NC(=O)COC(=O)c3ccc(NC(=O)CC#N)cc3)cc2)cc1	inactive
CCCC[C@H]1COCCS(=O)(=O)N1Cc1ccc(Br)cc1	inactive
O=C1C(=O)c2ccc(-c3ccccc3)cc2-c2ccccc21	inactive
Cc1ccc(C(=O)/C=C/c2cc(Br)cc(Br)c2O)o1	inactive

GET /values?item= CC(OC(=O)CC1CCCCC1)C(=O)Nc1ccc(S(N)(=O)=O)cc1 (configuration not stated) &system= Rap guanine nucleotide exchange factor 4 (Homo sapiens) (UniProt Q8WZA2) returns Potency: inactive

GET /values?item= `O=C(O)c1cc(Cl)ccc1-c1ccc(/C=C/c2cc(C(F)(F)F)[nH]c(=O)n2)o1` &system= Rap guanine nucleotide exchange factor 4 (Homo sapiens) (UniProt Q8WZA2) returns Potency: inactive

GET /values?item= `Cc1ccc(NC(=O)CN2C(=O)S/C(=C/c3ccc(O)c([N+](=O)[O-])c3)C2=O)cc1C` &system= Rap guanine nucleotide exchange factor 4 (Homo sapiens) (UniProt Q8WZA2) returns Potency: inactive

GET /values?item= `COc1ccccc1[C@]1(C)ON(c2ccccc2C(F)(F)F)C1=O` &system= Rap guanine nucleotide exchange factor 4 (Homo sapiens) (UniProt Q8WZA2) returns Potency: inactive

GET /values?item= `CC(C)(C)NC(=O)COC(=O)c1c2c(nc3ccccc13)CCC2` &system= Rap guanine nucleotide exchange factor 4 (Homo sapiens) (UniProt Q8WZA2) returns Potency: inactive

GET /values?item= `CSc1ccccc1C(=O)N(C)C(c1ccccc1)c1ccccc1` &system= Rap guanine nucleotide exchange factor 4 (Homo sapiens) (UniProt Q8WZA2) returns Potency: 26.9 µM (active)

GET /values?item= `O=C(O)/C=C\C(=O)Nc1ccccc1C#Cc1ccc(Br)cc1` &system= Rap guanine nucleotide exchange factor 4 (Homo sapiens) (UniProt Q8WZA2) returns Potency: 1.35 µM (active)

GET /values?item= `O=C1Cc2ccccc2C(=O)N1CCc1ccccc1` &system= Rap guanine nucleotide exchange factor 4 (Homo sapiens) (UniProt Q8WZA2) returns Potency: inactive

GET /values?item= `COc1ccccc1NC(=O)c1sc2nc(Cc3ccccc3)cc(C(F)(F)F)c2c1N` &system= Rap guanine nucleotide exchange factor 4 (Homo sapiens) (UniProt Q8WZA2) returns Potency: inactive

GET /values?item= `COc1ccc2c(=O)c(OC)c(-c3ccccc3)oc2c1` &system= Rap guanine nucleotide exchange factor 4 (Homo sapiens) (UniProt Q8WZA2) returns Potency: 13.9 µM (active)

GET /values?item= `Cc1ccc2nc(SCC(=O)c3c(N)n(C4CC4)c(=O)[nH]c3=O)[nH]c2c1` &system= Rap guanine nucleotide exchange factor 4 (Homo sapiens) (UniProt Q8WZA2) returns Potency: inactive

GET /values?item= `O=C(O)c1cccc(N2C(=O)c3cc([N+](=O)[O-])cc4cc([N+](=O)[O-])cc(c34)C2=O)c1` &system= Rap guanine nucleotide exchange factor 4 (Homo sapiens) (UniProt Q8WZA2) returns Potency: 37.9 µM (active)

GET /values?item= `COc1cccc(C(=O)Nc2cccc(C(=O)OCc3cc(=O)n4c(C)csc4n3)c2)c1` &system= Rap guanine nucleotide exchange factor 4 (Homo sapiens) (UniProt Q8WZA2) returns Potency: inactive

GET /values?item= Cc1ccccc1NC1c2ccccc2C(=O)N1Cc1ccco1 (configuration not stated) &system= Rap guanine nucleotide exchange factor 4 (Homo sapiens) (UniProt Q8WZA2) returns Potency: inactive
